B1: Hairpin Ribozyme (parent)
chain: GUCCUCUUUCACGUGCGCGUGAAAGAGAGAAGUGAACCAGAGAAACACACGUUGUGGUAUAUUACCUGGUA

variants of: B1; assay: self-cleavage, relative activity (ratio to wild type); higher = more cleavage; co-transcriptional
Note that class boundaries on self-cleavage are low value: < 0.1; medium value: ≥ 0.1 and < 0.3; high value: ≥ 0.3

Before answering, review these 3 worked examples.
VARIANT | GROUP LABEL
U5C U67C | medium value
U9G G51U | high value
G17C U33G | medium value

Input: Bin this entry: C3A C16U
Output: high value

Input: Same thing, different variant: U8C U67A
Output: medium value
